System: HT-29
Experiment: NCI tumour cell line growth inhibition, 48 h
Active and inactive are the calls of the source. Rule as the data show it: active = GI50 up to about 1.1 µM and inactive = higher.
Give GI50 for every item shown.

Would you mind telling me what GI50 value was observed for COC(=O)C1[C@@H](C(=O)OC)C(=O)O[C@H]1c1cc(OC)c(OC)c(OC)c1 (stereo not given in full) ?
> 100 µM (inactive)

Would you mind telling me what GI50 value was observed for `Cc1ccc(C(=O)N/N=C(\N=N\c2cccc([N+](=O)[O-])c2)c2ccc(N(CCC#N)CCC#N)cc2C)cc1` ?
29.2 µM (inactive)

Would you mind telling me what GI50 value was observed for COc1nc(O)c(N)c(NC2OC(CO)C(O)C(O)C2O)n1 (stereo not given) ?
> 100 µM (inactive)

Would you mind telling me what GI50 value was observed for `CCN(CC)CC(C)(C)C(=O)/C=C/c1ccc(C)cc1` ?
3.86 µM (inactive)

Would you mind telling me what GI50 value was observed for `CN(CCO)c1nc(=O)c2c([nH]1)CCC2` ?
> 100 µM (inactive)

---

System: HOP-92
Experiment: NCI tumour cell line growth inhibition, 48 h
The source made the active and inactive calls. No stated cut-off is given here; in the data, active = GI50 up to about 1.1 µM and inactive = higher.
Return exactly one item of active, inactive

Which outcome did this test record for the compound `COC(=O)c1c(O)ccc2[nH]c3c(O)c4ccccc4cc3c12` ?
inactive

Which outcome did this test record for the compound `COc1ccccc1-c1cc(O)c2c(C)cc(C)nc2n1` ?
inactive

Which outcome did this test record for the compound `CSc1c(C#N)c(N)nc2c(/N=N\c3ccc(Cl)cc3)c(N)nn12` ?
inactive

Which outcome did this test record for the compound CCCCCCCCCCCCC/C=C/[C@H]1[C@@H](C(=O)OC)N1[S+]([O-])c1ccc(C)cc1 (some centres undefined) ?
inactive

Which outcome did this test record for the compound Cc1ccc(S(=O)(=O)N2CCC3(C(/C=C/c4ccccc4)=Nc4ccccc43)C2c2ccccc2)cc1 (centres undefined) ?
inactive

Which outcome did this test record for the compound CCCCN(CCCC)C(=O)C(=O)C(C#N)c1ccc(C)cc1 (centres undefined) ?
inactive

Which outcome did this test record for the compound CN1CCCC(C(=O)OCC(=O)C2(O)CCC3C4CCC5=CC(=O)CCC5(C)C4C(O)CC32C)C1 (centres undefined) ?
inactive

Which outcome did this test record for the compound `CN(C)C(=S)SCc1ccccc1` ?
inactive

Which outcome did this test record for the compound COc1ccccc1C1C(C(=O)O)=C(CO)Oc2cc3c(cc21)OCO3 (centres undefined) ?
inactive

Which outcome did this test record for the compound `O=C1Nc2c(Cl)cc(Cl)cc2/C1=N/Nc1ccccc1[N+](=O)[O-]` ?
inactive

Which outcome did this test record for the compound `Cc1cc(O)nc2c3c(ccc12)OC(C)(C)C=C3` ?
inactive

Which outcome did this test record for the compound `Cc1c2ccccc2cc2nc3ccccc3n12` ?
inactive

Which outcome did this test record for the compound `O=C(Cc1csc2[n+]1C(=O)/C(=C/c1ccc(Cl)cc1)S2)Nc1ccccc1` ?
inactive

Which outcome did this test record for the compound `Cc1ccc(N2C(=O)/C(=C3\Sc4c(nc(C)[nH]c4=O)N3c3ccccc3)SC2=S)cc1` ?
inactive

Which outcome did this test record for the compound `COC(=O)c1c(CC#N)cccc1CC#N` ?
inactive

Which outcome did this test record for the compound CCCCCCCCCCCCCC(=O)OCC1OC(n2cc(F)c(=O)[nH]c2=O)C(NC(=O)OCc2ccccc2)C(OC(=O)CCCCCCCCCCCCC)C1O (centres undefined) ?
inactive

Which outcome did this test record for the compound `O=NN(CCF)C(=O)NC1CCSCC1` ?
inactive

Which outcome did this test record for the compound `Cn1c(=O)c2c(nc(N/N=C3/SCC(=O)N3Cc3ccccc3)n2C)n(C)c1=O` ?
inactive

Which outcome did this test record for the compound `O=C(CCCN1CCC2(CC1)/C(=N/C1CCCCC1)NC(=O)N2c1ccccc1)c1ccc(F)cc1` ?
inactive

Which outcome did this test record for the compound Fc1cccc(F)c1C1SCc2nc3cc(Cl)ccc3n21 (centres undefined) ?
inactive

Which outcome did this test record for the compound `C=C/C=C/NC(=O)OCc1ccccc1` ?
inactive

Which outcome did this test record for the compound CC(=O)O[C@H]1[C@H](OC(=O)CC(C)(O)CC(=O)O)C[C@]2(C)C3=C(CCC2C1(C)C)[C@]1(C)CC[C@H]([C@H]2CC[C@H](C(C)(C)O)OC2O)[C@@]1(C)[C@@H](O)C3 (some centres undefined) ?
inactive

Which outcome did this test record for the compound CCC(C(C)N1CC(=O)NC(=O)C1)N1CC(=O)NC(=O)C1 (centres undefined) ?
inactive

Which outcome did this test record for the compound COC1=CC(=O)c2ccccc2C1(CCC=C(C)C)C1=NC(C)(C)CO1 (centres undefined) ?
inactive

Which outcome did this test record for the compound `CC(=O)O[C@H]1C[C@H](O[C@H]2[C@@H](O)C[C@H](O[C@H]3[C@@H](O)C[C@H](O[C@H]4CC[C@@]5(C)[C@H](CC[C@@H]6[C@@H]5CC[C@]5(C)[C@@H](C7=CC(=O)OC7)CC[C@]65O)C4)O[C@@H]3C)O[C@@H]2C)O[C@H](C)[C@H]1O[C@@H]1O[C@H](CO)[C@@H](O)[C@H](O)[C@H]1O` ?
active

Which outcome did this test record for the compound `COc1ccc2c(c1)CCCc1c-2nc2ccccc2c1N` ?
inactive

Which outcome did this test record for the compound CC1(C)CC23C4COC(=O)C2CCC1C3CC4=O (centres undefined) ?
inactive

Which outcome did this test record for the compound COC1CCC(OS(C)(=O)=O)CO1 (centres undefined) ?
inactive

Which outcome did this test record for the compound CC1CCCCc2nc3c(c(=O)n21)CCCC3 (centres undefined) ?
inactive

Which outcome did this test record for the compound c1ccc(C2C(=P(c3ccccc3)(c3ccccc3)c3ccccc3)P=PC2[P+](c2ccccc2)(c2ccccc2)c2ccccc2)cc1.c1ccc([B-](c2ccccc2)(c2ccccc2)c2ccccc2)cc1 (centres undefined) ?
active

Which outcome did this test record for the compound `Nc1c2ccccc2nc2ccc(C(=O)Nc3ccc(S(N)(=O)=O)cc3)cc12` ?
inactive

Which outcome did this test record for the compound `CC(=O)c1cc(I)c(O)c2ncccc12` ?
inactive

Which outcome did this test record for the compound `C=CCn1c(=S)sc2c(O)ncnc21` ?
inactive

Which outcome did this test record for the compound `C[C@H](Nc1nc(N)c(N=O)c(=O)n1C)C(=O)O` ?
inactive

Which outcome did this test record for the compound `O=c1[nH]cc(NCCCl)c(=O)[nH]1` ?
inactive

Which outcome did this test record for the compound CC1C/C(=C\c2ccc(O)c(O)c2)C(=O)/C(=C/c2ccc(O)c(O)c2)C1 (centres undefined) ?
inactive

Which outcome did this test record for the compound `Cc1cccc2c(N)c3cccc(C(=O)NCC[N+](C)(C)Cc4ccccc4[N+](=O)[O-])c3nc12` ?
inactive

Which outcome did this test record for the compound `CC(=O)c1sc2c(c1OC(=O)c1ccc(Cl)cc1Cl)c(=O)n(-c1ccccc1)c(=S)n2-c1ccccc1` ?
active

Which outcome did this test record for the compound `N=C(N)NS(=O)(=O)c1ccc(Nc2c3ccccc3nc3c(C(=O)NCCO)cccc23)cc1` ?
active

---

System: T47D
Assay: NCI tumour cell line growth inhibition, 48 h
Calls of active or inactive are those of the source. No stated cut-off is given here; in the data, active = GI50 up to about 1.1 µM and inactive = higher.
Return exactly one item of active, inactive

Which outcome did this test record for the compound CC1(c2nc3ccccc3[nH]2)CCC(C(N)=O)C(C)(C)O1 (stereo not drawn) ?
inactive

Which outcome did this test record for the compound `O=C(CSCC(=O)N/N=C/c1cccs1)N/N=C/c1cccs1` ?
inactive

Which outcome did this test record for the compound `O=C(NCCCNC(=O)c1ccc2cc(O)c(O)cc2c1)c1ccc2cc(O)c(O)cc2c1` ?
inactive

Which outcome did this test record for the compound `O=C(Nn1c(-c2ccccc2)nc2ccccc2c1=O)c1ccccc1O` ?
inactive

Which outcome did this test record for the compound `O=C1NCc2ccccc2S(=O)(=O)n2cccc21` ?
inactive

Which outcome did this test record for the compound `O=C(Cn1cc(Br)c(=O)[nH]c1=O)c1ccc(-c2ccccc2)cc1` ?
inactive

Which outcome did this test record for the compound `CN(C)C(=S)SCc1ccccc1` ?
active

Which outcome did this test record for the compound `COc1ccc2nc3cc(Cl)ccc3c(NCCCNCc3cc(OC)c(OC)c(OC)c3)c2c1` ?
inactive

Which outcome did this test record for the compound COc1ccc(C2C(C#N)=C(S)N(C3OC(CO)C(O)C(O)C3O)C(C)=C2C(C)=O)cc1 (stereo not drawn) ?
inactive

Which outcome did this test record for the compound O=c1c(O)c(-c2ccc(O)cc2O)oc2cc(O)cc(O)c12 [MORIN] ?
inactive

Which outcome did this test record for the compound `COC(=O)c1c[nH]c2c1-c1cc(C(=O)OCc3ccccc3)n(S(=O)(=O)c3ccc(C)cc3)c1C(=O)C2=O` ?
active

Which outcome did this test record for the compound `CCOc1cc2c(NCCCN(CCO)CCO)ncnc2c(OCC)c1OCC` ?
inactive

Which outcome did this test record for the compound `Cc1ccccc1N(C)S(=O)(=O)c1ccccc1[N+](=O)[O-]` ?
inactive

Which outcome did this test record for the compound `O=C1c2cc([N+](=O)[O-])sc2C(=O)c2cc([N+](=O)[O-])sc21` ?
inactive

Which outcome did this test record for the compound `O=C(O)c1nn(-c2ccccc2)nc1-c1nn(-c2ccccc2)nc1C(=O)O` ?
inactive

Which outcome did this test record for the compound `Cc1ccc(C(=O)N/N=C(\N=N\c2cccc([N+](=O)[O-])c2)c2ccc(N(CCC#N)CCC#N)cc2C)cc1` ?
inactive

Which outcome did this test record for the compound `NCCc1nc(-c2nc(C(=O)O)cs2)cs1` ?
inactive

Which outcome did this test record for the compound `O=[N+]([O-])c1ccc(Nc2nc3ccccc3s2)cc1` ?
inactive

Which outcome did this test record for the compound `CC(=N\N)/C(C)=N/N=C(C)/C(C)=N/N` ?
inactive

Which outcome did this test record for the compound `C1COCCN1.S=C(S)N1CCOCC1` ?
inactive

Which outcome did this test record for the compound `CN(C)c1nc2sc3c(c2c(=O)o1)CCCC3` ?
inactive

Which outcome did this test record for the compound Fc1cccc(F)c1C1SCc2nc3cc(Cl)ccc3n21 (stereo not drawn) ?
inactive

Which outcome did this test record for the compound `COc1ccc(NC(=O)NNS(=O)(=O)c2ccc(C)cc2)cc1` ?
inactive

Which outcome did this test record for the compound CCCC1CC(=O)NC(=O)C1C(=O)OC(C)(C)C (stereo not drawn) ?
inactive

Which outcome did this test record for the compound CC1CN=C(N(C(=O)Nc2ccc(Cl)c(Cl)c2)c2ccccc2)S1 (stereo not drawn) ?
inactive

Which outcome did this test record for the compound CN1CCCC(C(=O)OCC(=O)C2(O)CCC3C4CCC5=CC(=O)CCC5(C)C4C(O)CC32C)C1 (stereo not drawn) ?
inactive

Which outcome did this test record for the compound C=C(C)C1Cc2c(cc3c(c2O)c(=O)c2ccccc2n3C)O1 (stereo not drawn) ?
inactive

Which outcome did this test record for the compound C/C=C1/C[C@@H](C)[C@@](C)(O)C(=O)OCC2=CC[N+]3([O-])CC[C@@H](OC1=O)[C@@H]23 (stereo partly drawn) [SENECIONINE N-OXIDE] ?
inactive

Which outcome did this test record for the compound `C(=N\c1ccc2c(c1)Cc1ccccc1-2)/c1ccccn1` ?
inactive

Which outcome did this test record for the compound `C[N+](C)(N)c1nc(N)c(C#N)c(C#N)c1C#N` ?
inactive

Which outcome did this test record for the compound C/C(CC1C2CCCC1C2)=N\NC(N)=O (stereo not drawn) ?
inactive

Which outcome did this test record for the compound `CSc1c(C#N)c(N)nc2c(/N=N\c3ccc(Cl)cc3)c(N)nn12` ?
inactive

Which outcome did this test record for the compound `Cn1c(=O)c2c(nc(N/N=C3/SCC(=O)N3Cc3ccccc3)n2C)n(C)c1=O` ?
inactive

Which outcome did this test record for the compound `Cc1c2ccccc2cc2nc3ccccc3n12` ?
inactive

Which outcome did this test record for the compound CCCCCCCCCCCCC(O)C1CCC(C(O)CCCCC(O)CCCCCC2CC(CC(C)=O)C(=O)O2)O1 (stereo not drawn) ?
inactive

Which outcome did this test record for the compound `Oc1ccc(-c2csc(N/N=C3\NC/C(=C/c4ccc5c(c4)OCO5)S3)n2)cc1O` ?
inactive

Which outcome did this test record for the compound Cc1cc(C)c(N[S+]([O-])c2cccc([N+](=O)[O-])c2)c(C)c1 (stereo not drawn) ?
inactive

Which outcome did this test record for the compound CC(=O)OCC1OC(n2c3c(cc(C#N)c2=S)CCCCCC3)C(OC(C)=O)C(OC(C)=O)C1OC(C)=O (stereo not drawn) ?
inactive

Which outcome did this test record for the compound `Cc1cccc2c(N)c3cccc(C(=O)NCC[N+](C)(C)Cc4ccccc4[N+](=O)[O-])c3nc12` ?
inactive

Which outcome did this test record for the compound `CS(=O)(=O)c1ccc(/N=C/C=C/Nc2ccc(S(C)(=O)=O)cc2)cc1` ?
inactive

Which outcome did this test record for the compound C=C1C(=O)O[C@@H]2/C=C(C)/C=C\[C@@H]3O[C@@]3(C)C[C@@H](O)C12 (stereo partly drawn) ?
inactive

Which outcome did this test record for the compound Cc1ccc2[nH]c3c(c2c1)C1CCC(C(C)(C)C)CC1C1C(=O)N(c2ccc(Oc4ccccc4)cc2)C(=O)C31 (stereo not drawn) ?
inactive

Which outcome did this test record for the compound CCCCN1C(=O)C2Cc3c([nH]c4ccccc34)C(c3cccc(O)c3)N2C1=O (stereo not drawn) ?
inactive
